# Lookup of reported activation keyed by entry
molecular target: Cellular tumor antigen p53 (Homo sapiens); test: Primary qHTS for small molecule compounds that upregulate eGFP-tagged delta133p53alpha (in N-terminal) cells. (AID 2060322); conditions: NCI-H358 eGFP-delta133p53alpha fluorescence, 24 h; stronger effect = higher value;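 further: cells pre-induced with doxycycline then dosed without doxycycline; series mostly up to about 56 µM; 0% = DMSO vehicle and 100% = reference activator; nearly all actives have a fitted effect of over 75% in size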
Results filed as inconclusive are left out. The source made the active and inactive calls. The call rests on the fitted dose curve; in most records, active means well fitted activation curve with a large enough effect; inconclusive means small, poorly fitted or top-dose-only effect; inactive means no such curve, though single readings can be large or run the other way.

Example results:
NC1(C(=O)N[C@@H](CCO)c2ccc(Cl)cc2)CCN(c2ncnc3[nH]ccc23)CC1: 7.49% (inactive)
C/C=C(\C)C(=O)OC1CC2C(CC=C3CC(OC4CC(OC)C(OC5CC(OC)C(OC6CC(OC)C(OC7CC(OC)C(OC8CC(OC)C(OC9OC(CO)C(O)C(O)C9O)C(C)O8)C(C)O7)C(C)O6)C(C)O5)C(C)O4)CCC32C)C2(O)CCC(C(C)=O)C12C (stereo not drawn): -13% (inactive)

Continue with the compound presented below.
GET /values?readout=activation&item= O=C(O[C@H]1[C@@H]2C[C@@H]3OC[C@](O)([C@@H]1Cl)[C@H]2C(O[C@@H]1O[C@H](CO)[C@@H](O)[C@H](O)[C@H]1O)O3)c1ccc(O)c(O)c1 (stereo partly drawn)
-22.1% (inactive)
